# Test system: human hepatocellular carcinoma HepG2 cell line
# assay-procedure: MTT antiproliferative assay, HepG2
# Assay type: cell-based
# cond: 72 h
pIC50: −log10 of the molar value.
Quick list: pIC50 per entry.

compound: CC(C)=CCC12OC(C)(C)C3CC(C=C4C(=O)c5c(OCc6cn(CCCN7CCN(C)CC7)nn6)cccc5OC431)C2=O (stereo not shown)
system-name: human hepatocellular carcinoma HepG2 cell line
pIC50: 5.54
--
compound: CC(C)=CCC12OC(C)(C)C3CC(C=C4C(=O)c5c(OCc6cn(CCN7CCCCC7)nn6)cccc5OC431)C2=O (stereo not shown)
system-name: human hepatocellular carcinoma HepG2 cell line
pIC50: 5.31
--
compound: CC(C)=CCC12OC(C)(C)C3CC(C=C4C(=O)c5c(OCc6cn(CCCN7CCCCC7)nn6)cccc5OC431)C2=O (stereo not shown)
system-name: human hepatocellular carcinoma HepG2 cell line
pIC50: 5.20
--
compound: CC(C)=CCC12OC(C)(C)C3CC(C=C4C(=O)c5c(OCc6cn(CCCN7CCCC7)nn6)cccc5OC431)C2=O (stereo not shown)
system-name: human hepatocellular carcinoma HepG2 cell line
pIC50: 5.35
--
compound: CC(C)=CCC12OC(C)(C)C3CC(C=C4C(=O)c5c(OCc6cn(CCN7CCN(C)CC7)nn6)cccc5OC431)C2=O (stereo not shown)
system-name: human hepatocellular carcinoma HepG2 cell line
pIC50: 5.27
--
compound: CC(C)=CCC12OC(C)(C)C3CC(C=C4C(=O)c5c(OCc6cn(CCN(C)C)nn6)cccc5OC431)C2=O (stereo not shown)
system-name: human hepatocellular carcinoma HepG2 cell line
pIC50: 5.67
--
compound: CC(C)=CCC12OC(C)(C)C3CC(C=C4C(=O)c5c(O)cccc5OC431)C2=O (stereo not shown) [DDO-6101, reference compound]
system-name: human hepatocellular carcinoma HepG2 cell line
pIC50: 5.69
